Tested on: HCT-15 colon
protocol: NCI-60 one-dose screen, 48 h (100 = growth as untreated, 0 = no growth, -100 = all killed)
condition_details: 10 µM unless noted
About 83,000 compounds went through this panel and 20% of them were active in at least one assay; those are over-represented in the sample as a whole. Activity calls are given as the source filed them. The calls were made as follows: active = growth percent below 10; inactive = the rest.
Overview of reported growth across a group of compounds:

compound: C=CCc1cc(OC)c(OC)c(OC)c1
growth: 99.1% (inactive)
//
compound: O=[N+]([O-])c1c(Cl)ncnc1Cl
growth: 100% (inactive)
//
compound: Nc1c(Br)cc(O)c2c1C(=O)c1ccccc1C2=O
growth: 47.7% (inactive)
//
compound: Cc1ccc(C)c(CN(C)C)c1O
growth: 121% (inactive)
//
compound: CCC(=O)Oc1c(C)cc(O)c2ccccc12
growth: 91.1% (inactive)
//
compound: CCCCCC#CC(=O)O
growth: 105% (inactive)
//
compound: CC(C)N(C(=O)c1ccccc1)C(C)C
growth: 104% (inactive)
//
compound: NNc1ncccn1
growth: 106% (inactive)
//
compound: c1ccc(Oc2c3ccccc3nc3ccccc23)cc1
growth: 14.6% (inactive)
//
compound: C#CCSc1nnnn1-c1ccccc1
growth: 54.1% (inactive)
//
compound: COc1ccc(C(=O)/C(=N/Nc2ccccc2)c2ccc(OC)cc2)cc1
growth: 76.1% (inactive)
//
compound: COc1cc(CC#N)c([N+](=O)[O-])cc1OC
growth: 116% (inactive)
//
compound: C1C[S+]2CC[S+]1CC2
growth: 105% (inactive)
//
compound: CC(C)C(=O)OCCOc1ccc(C(C)(C)C)cc1
growth: 100% (inactive)
//
compound: C=C(OC(C)=O)c1ccccc1
growth: 114% (inactive)
//
compound: CCOC(=O)c1c[nH][nH]c1=O
growth: 103% (inactive)
//
compound: CC1CCC(C(C)(C)[N+](C)(C)C)CC1 (stereo not drawn)
growth: 98.1% (inactive)
//
compound: O=S(=O)(c1ccc(NC(=S)NCc2cccnc2)cc1)N1CCCCC1
growth: 57.2% (inactive)
//
compound: S=c1nc2[nH]c3ccccc3c2n[nH]1
growth: 97.3% (inactive)
//
compound: COc1ccc(Br)c(C=O)c1
growth: 26.8% (inactive)
//
compound: CN(C)CCOC(=O)Nc1ccc(Cc2ccc(NC(=O)OCCN(C)C)cc2)cc1
growth: 63.1% [100 µM] (inactive)
//
compound: CCNC(=O)Oc1ccc[nH]c1=O
growth: 97.9% (inactive)
//
compound: O=C(c1ccccc1)c1ccc(-c2ccc(O)cc2)cc1
growth: 57% (inactive)
//
compound: CC(=O)Nc1ncc(S(=O)(=O)c2ccc([N+](=O)[O-])cc2)s1
growth: 105% (inactive)
//
compound: Cn1/c(=N\N=C\c2ccccc2OCCO)sc2ccccc21
growth: 82.4% (inactive)
//
compound: Cc1cc(Cc2ccccc2)c(O)c(Cc2ccccc2)c1
growth: 89.8% (inactive)
//
compound: CCOC(=O)c1ccc(Nc2sc(C(=O)c3ccc(Br)cc3)c(N)c2C#N)cc1
growth: 27% (inactive)
//
compound: O=S(=O)(O)C(C(I)I)S(=O)(=O)O
growth: 110% (inactive)

###

Test system: SN12C renal
protocol: NCI-60 one-dose screen, 48 h (100 = growth as untreated, 0 = no growth, -100 = all killed)
condition_details: 10 µM unless noted
This is part of a sample that, as a whole, favours compounds with a hit. Of some 83,000 tested, about 20% had one in any assay.

compound: CCOC(=O)c1ccc(NC(C)=O)o1
growth [%]: 95.1
//
compound: C1CCc2onc(-c3noc4c3CCCCC4)c2CC1
growth [%]: 95.6
//
compound: CCCC1OC(c2ccco2)OCC1CC (stereo not drawn)
growth [%]: 98.4
//
compound: COC1OC(COC(C)=O)C(OC(C)=O)C(OC(C)=O)C1OC(C)=O (stereo not drawn)
growth [%]: 101
//
compound: COc1cc(OC)c2cc(C(=O)c3ccc(C#N)cc3)c(=O)oc2c1
growth [%]: 81.6
//
compound: CCOC(=O)C(COS(C)(=O)=O)(COS(C)(=O)=O)C(=O)OCC
growth [%]: 104
//
compound: CC(=O)OC/C(C)=C\CC(C)COC(C)=O (stereo not drawn)
growth [%]: 99.6
//
compound: CCOC(OCC)C(=O)c1ccccc1
growth [%]: 101
//
compound: ClCC(Cl)[C@@H]1CC2C=CC1C2 (stereo partly drawn)
growth [%]: 102
//
compound: Cc1ccc(C)c2c1CCC2=O
growth [%]: 102
//
compound: CN(C)c1ccc2c(N(C)C)cc(N(C)C)nc2c1
growth [%]: 83.1
//
compound: O=C(O)c1c[nH]c2ccccc2c1=O
growth [%]: 103
//
compound: Nc1ncnc(Nc2ccc(C(F)(F)F)cc2)n1
growth [%]: 99.8

Data provenance: PubChem BioAssay (NCI)
